# system: hERG potassium channel (Homo sapiens)
# Sequence (Q12809 whole entry): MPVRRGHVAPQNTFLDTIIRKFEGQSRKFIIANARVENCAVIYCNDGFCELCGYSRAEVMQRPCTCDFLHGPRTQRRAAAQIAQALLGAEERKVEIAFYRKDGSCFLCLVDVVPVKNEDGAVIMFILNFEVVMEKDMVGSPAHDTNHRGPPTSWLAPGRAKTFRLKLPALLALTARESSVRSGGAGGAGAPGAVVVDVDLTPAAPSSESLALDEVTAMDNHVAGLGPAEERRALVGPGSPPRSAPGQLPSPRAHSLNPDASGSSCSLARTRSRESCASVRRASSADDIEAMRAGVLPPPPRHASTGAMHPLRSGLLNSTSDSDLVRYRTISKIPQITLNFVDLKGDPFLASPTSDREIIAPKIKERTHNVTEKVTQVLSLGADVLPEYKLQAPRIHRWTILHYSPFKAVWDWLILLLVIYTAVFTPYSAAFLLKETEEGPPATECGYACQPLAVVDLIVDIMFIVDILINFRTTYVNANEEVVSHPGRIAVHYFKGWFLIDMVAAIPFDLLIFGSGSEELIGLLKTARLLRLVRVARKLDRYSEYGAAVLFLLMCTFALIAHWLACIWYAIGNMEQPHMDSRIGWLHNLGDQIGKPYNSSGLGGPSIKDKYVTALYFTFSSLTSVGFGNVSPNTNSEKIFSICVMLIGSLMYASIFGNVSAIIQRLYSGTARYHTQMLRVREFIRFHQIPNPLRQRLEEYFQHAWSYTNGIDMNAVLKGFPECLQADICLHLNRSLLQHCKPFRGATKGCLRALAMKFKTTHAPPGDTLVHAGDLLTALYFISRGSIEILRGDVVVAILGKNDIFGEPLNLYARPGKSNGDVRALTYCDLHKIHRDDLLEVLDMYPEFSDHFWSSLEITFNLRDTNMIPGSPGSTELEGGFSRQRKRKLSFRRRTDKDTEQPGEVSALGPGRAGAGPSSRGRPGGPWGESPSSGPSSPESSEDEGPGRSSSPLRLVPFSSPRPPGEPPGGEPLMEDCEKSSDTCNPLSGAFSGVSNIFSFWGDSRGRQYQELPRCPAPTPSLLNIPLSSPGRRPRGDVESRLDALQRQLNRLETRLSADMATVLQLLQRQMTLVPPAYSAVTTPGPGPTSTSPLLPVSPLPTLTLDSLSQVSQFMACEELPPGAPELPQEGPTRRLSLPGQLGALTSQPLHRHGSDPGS
# test-method-notes: hERG potassium channel QPatch automated patch clamp in CHO cells
pIC50: −log10 of the molar value.
experimental-endpoint: pIC50

Which pIC50 is listed for Cc1c(C(=O)Nc2ccc(Oc3ccnc(Nc4cccc(OC5CCN(C)CC5)c4)n3)cc2)c(=O)n(-c2ccccc2)n1C [compound 17c] ?
< 4.40

* * *

# system: c-Met kinase (Homo sapiens)
# Sequence (P08581 25-1390): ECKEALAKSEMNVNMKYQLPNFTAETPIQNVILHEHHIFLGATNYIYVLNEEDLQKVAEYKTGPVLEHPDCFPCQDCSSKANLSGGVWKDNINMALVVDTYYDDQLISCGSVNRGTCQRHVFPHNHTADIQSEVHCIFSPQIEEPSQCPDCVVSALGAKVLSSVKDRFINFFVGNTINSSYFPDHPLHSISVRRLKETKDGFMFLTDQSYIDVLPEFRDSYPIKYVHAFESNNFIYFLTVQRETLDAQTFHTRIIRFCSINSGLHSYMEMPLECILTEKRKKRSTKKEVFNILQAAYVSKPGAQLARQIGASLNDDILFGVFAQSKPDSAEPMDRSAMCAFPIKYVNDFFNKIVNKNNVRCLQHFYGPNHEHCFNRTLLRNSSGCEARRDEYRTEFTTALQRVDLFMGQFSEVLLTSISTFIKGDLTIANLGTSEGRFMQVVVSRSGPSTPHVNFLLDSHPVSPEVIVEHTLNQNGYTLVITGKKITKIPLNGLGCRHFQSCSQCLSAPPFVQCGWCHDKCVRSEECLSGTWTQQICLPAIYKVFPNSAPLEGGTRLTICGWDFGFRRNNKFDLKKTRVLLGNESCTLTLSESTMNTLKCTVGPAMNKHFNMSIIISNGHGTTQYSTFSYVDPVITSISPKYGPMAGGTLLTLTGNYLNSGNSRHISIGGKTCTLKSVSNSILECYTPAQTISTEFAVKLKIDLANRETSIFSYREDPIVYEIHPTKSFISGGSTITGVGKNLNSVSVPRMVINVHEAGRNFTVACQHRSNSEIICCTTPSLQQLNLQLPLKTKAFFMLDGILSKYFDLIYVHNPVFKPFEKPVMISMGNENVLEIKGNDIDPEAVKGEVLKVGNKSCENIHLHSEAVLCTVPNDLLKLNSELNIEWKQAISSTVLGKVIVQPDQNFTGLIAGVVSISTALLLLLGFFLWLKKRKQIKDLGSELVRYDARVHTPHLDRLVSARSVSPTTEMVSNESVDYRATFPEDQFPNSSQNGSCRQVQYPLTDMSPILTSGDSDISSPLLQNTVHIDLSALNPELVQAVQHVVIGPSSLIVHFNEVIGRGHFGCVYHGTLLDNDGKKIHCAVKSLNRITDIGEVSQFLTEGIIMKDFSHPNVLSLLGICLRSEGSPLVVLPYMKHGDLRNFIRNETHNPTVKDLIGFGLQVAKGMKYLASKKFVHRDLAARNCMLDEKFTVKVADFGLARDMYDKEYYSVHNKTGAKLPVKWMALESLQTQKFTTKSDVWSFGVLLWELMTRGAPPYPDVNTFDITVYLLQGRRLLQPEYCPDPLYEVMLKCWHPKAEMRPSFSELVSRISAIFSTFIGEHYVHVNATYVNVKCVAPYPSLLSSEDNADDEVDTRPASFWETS
pIC50: −log10 of the molar value.
Decision: pIC50 >= 7 yields yes, all other cases yield no.

Take a look at these entries with their results.
>  <compound>
CC(=O)N1CCN(c2cccc(Nc3nccc(Oc4ccc(NC(=O)c5c(C)n(C)n(-c6ccccc6)c5=O)cc4)n3)c2)CC1 [compound 17f]

>  <system>
c-Met kinase (Homo sapiens)

>  <class>
yes

$$$$
>  <compound>
CN1CCN(C(=O)c2ccc(Nc3nccc(Oc4ccc(NC(=O)C5(C(=O)Nc6ccc(F)cc6)CC5)cc4)n3)cc2)CC1 [compound 13h]

>  <system>
c-Met kinase (Homo sapiens)

>  <class>
yes

$$$$
>  <compound>
Cc1c(C(=O)Nc2ccc(Oc3ccnc(Nc4ccc(OC5CCN(C)CC5)cc4)n3)cc2)c(=O)n(-c2ccccc2)n1C [compound 17a]

>  <system>
c-Met kinase (Homo sapiens)

>  <class>
no

$$$$

Turning now to a further compound:
API: above_or_equal(metric=pIC50, cutoff=7) for item Cc1c(C(=O)Nc2ccc(Oc3ccnc(Nc4cccc(OC5CCN(C)CC5)c4)n3)cc2)c(=O)n(-c2ccccc2)n1C [compound 17c]
yes
